Each recorded value in this set is attributed to patent US20240059799A1.

Target: T1, recombinant human TL1A (human, UniProt O95150 71-251)
T1 construct: homotrimer; biotinylated for SPR capture; the ELISA paragraphs say only 'recombinant TL1A'; also called TNFSF15
T1 chain: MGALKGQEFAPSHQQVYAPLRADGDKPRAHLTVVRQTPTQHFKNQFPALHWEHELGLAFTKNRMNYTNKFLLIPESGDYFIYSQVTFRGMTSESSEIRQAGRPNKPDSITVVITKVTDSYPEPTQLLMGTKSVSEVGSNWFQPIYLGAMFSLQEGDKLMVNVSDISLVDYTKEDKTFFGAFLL
Test: competition ELISA vs bio-TL1A-0002
# maps each entry to its pIC50
Lab note: report pIC50 as minus log10 of the concentration in molar units, number only.

Use these answered entries as a reference point.
binder: TL1A-0052 (antibody, human IgG1, kappa, V domains shown, IgG1/kappa; IGHV1-2*02 / IGKV1-39*01 grafts) VH: QVQLVQSGAEVKKPGASVKVSCKASGYDFTYYGISWVRQAPGQGLEWMGWISTYNGNTHYARMLQGRVTMTRDTSISTAYMELSRLRSDDTAVYYCARENYYGSGAYRGGMDVWGQGTTVTVSS VL: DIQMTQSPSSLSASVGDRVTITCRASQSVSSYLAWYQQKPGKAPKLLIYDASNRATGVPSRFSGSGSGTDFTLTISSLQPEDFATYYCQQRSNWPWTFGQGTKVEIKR
pIC50: 8.46

binder: TL1A-0047 (antibody, human IgG1, kappa, V domains shown, IgG1/kappa; VH graft on IGHV3-7*01) VH: EVQLVESGGGLVQPGGSLRLSCAASGYDFTYYGISWVRQAPGKGLEWVAWISTYNGNTHYARMLQGRFTISRDNAKNSLYLQMNSLRAEDTAVYYCARENYYGSGAYRGGMDVWGQGTTVTVSS VL: EIVLTQSPATLSLSPGERATLSCRASQSVSSYLAWYQQKPGQAPRLLIYDASNRATGIPARFSGSGSGTDFTLTISSLEPEDFAVYYCQQRSNWPWTFGQGTKVEIKR
pIC50: 8.28

binder: TL1A-0051 (antibody, human IgG1, kappa, V domains shown, IgG1/kappa; IGHV3-7*01 / IGKV1-39*01 grafts) VH: EVQLVESGGGLVQPGGSLRLSCAASGYDFTYYGISWVRQAPGKGLEWVAWISTYNGNTHYARMLQGRFTISRDNAKNSLYLQMNSLRAEDTAVYYCARENYYGSGAYRGGMDVWGQGTTVTVSS VL: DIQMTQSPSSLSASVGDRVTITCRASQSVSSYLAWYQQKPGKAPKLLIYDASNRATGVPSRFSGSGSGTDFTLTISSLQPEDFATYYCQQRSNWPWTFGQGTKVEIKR
pIC50: 8.35

binder: TL1A-0055 (antibody, human IgG1, kappa, V domains shown, IgG1/kappa; IGHV3-7*01 / IGKV3D-7*01 grafts) VH: EVQLVESGGGLVQPGGSLRLSCAASGYDFTYYGISWVRQAPGKGLEWVAWISTYNGNTHYARMLQGRFTISRDNAKNSLYLQMNSLRAEDTAVYYCARENYYGSGAYRGGMDVWGQGTTVTVSS VL: EIVMTQSPATLSLSPGERATLSCRASQSVSSYLAWYQQKPGQAPRLLIYDASNRATGIPARFSGSGSGTDFTLTISSLQPEDFAVYYCQQRSNWPWTFGQGTKVEIKR
pIC50: 8.36

binder: TL1A-0042 (antibody, human IgG1, kappa, V domains shown, TL1A-0002 heavy chain with light chain CDRs grafted on IGKV1-39*01 (DPK9)) VH: QVQLVQSGAEVKKPGASVKVSCKASGYDFTYYGISWVRQAPGQGLEWMGWISTYNGNTHYARMLQGRVTMTTDTSTRTAYMELRSLRSDDTAVYYCARENYYGSGAYRGGMDVWGQGTTVTVSS VL: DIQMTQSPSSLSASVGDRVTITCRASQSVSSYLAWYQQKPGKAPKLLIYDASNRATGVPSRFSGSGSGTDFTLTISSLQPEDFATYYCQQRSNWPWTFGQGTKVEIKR
pIC50: 8.38

binder: TL1A-0049 (antibody, human IgG1, kappa, V domains shown, IgG1/kappa; IGHV1-46*01 / IGKV1-39*01 grafts) VH: QVQLVQSGAEVKKPGASVKVSCKASGYDFTYYGISWVRQAPGQGLEWMGWISTYNGNTHYARMLQGRVTMTRDTSTSTVYMELSSLRSEDTAVYYCARENYYGSGAYRGGMDVWGQGTTVTVSS VL: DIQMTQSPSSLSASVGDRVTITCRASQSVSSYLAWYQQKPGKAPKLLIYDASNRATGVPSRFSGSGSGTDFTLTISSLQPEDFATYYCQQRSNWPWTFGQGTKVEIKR
pIC50: 8.31

binder: TL1A-0002 (antibody, human IgG1, kappa, V domains shown, human IgG1/kappa, effector function minimized; also called bioTL1A-0002 (biotinylated)) VH: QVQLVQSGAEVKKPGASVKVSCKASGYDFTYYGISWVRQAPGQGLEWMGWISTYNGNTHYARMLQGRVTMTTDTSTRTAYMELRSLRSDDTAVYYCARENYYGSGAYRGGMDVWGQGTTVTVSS VL: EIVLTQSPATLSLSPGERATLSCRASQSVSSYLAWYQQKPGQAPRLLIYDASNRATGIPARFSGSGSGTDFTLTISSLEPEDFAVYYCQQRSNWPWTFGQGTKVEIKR
pIC50: 8.35

binder: TL1A-0045 (antibody, human IgG1, kappa, V domains shown, IgG1/kappa; VH graft on IGHV1-46*01) VH: QVQLVQSGAEVKKPGASVKVSCKASGYDFTYYGISWVRQAPGQGLEWMGWISTYNGNTHYARMLQGRVTMTRDTSTSTVYMELSSLRSEDTAVYYCARENYYGSGAYRGGMDVWGQGTTVTVSS VL: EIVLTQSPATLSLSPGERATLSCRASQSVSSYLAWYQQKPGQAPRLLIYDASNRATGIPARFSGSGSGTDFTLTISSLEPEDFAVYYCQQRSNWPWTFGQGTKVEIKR
pIC50: 8.26

// moving on: another record for pIC50
IN: What value of pIC50 has been reported for the following binder? TL1A-0056 (antibody, human IgG1, kappa, V domains shown, IgG1/kappa; IGHV1-2*02 / IGKV3D-7*01 grafts) VH: QVQLVQSGAEVKKPGASVKVSCKASGYDFTYYGISWVRQAPGQGLEWMGWISTYNGNTHYARMLQGRVTMTRDTSISTAYMELSRLRSDDTAVYYCARENYYGSGAYRGGMDVWGQGTTVTVSS VL: EIVMTQSPATLSLSPGERATLSCRASQSVSSYLAWYQQKPGQAPRLLIYDASNRATGIPARFSGSGSGTDFTLTISSLQPEDFAVYYCQQRSNWPWTFGQGTKVEIKR
OUT: 8.42
